Target: Grb2 SH2 (UniProt P62993)
Sequence (P62993 whole entry, looked up): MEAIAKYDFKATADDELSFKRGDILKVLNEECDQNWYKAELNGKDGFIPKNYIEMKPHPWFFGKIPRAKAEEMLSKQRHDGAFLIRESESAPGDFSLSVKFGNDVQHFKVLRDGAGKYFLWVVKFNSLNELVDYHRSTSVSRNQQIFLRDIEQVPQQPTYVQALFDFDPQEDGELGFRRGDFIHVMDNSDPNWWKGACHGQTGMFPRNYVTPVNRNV
Assay: SH2 binding enrichment of the phosphorylated peptide, bacterial display (enrichment ratio); higher = better substrate or ligand; peptides without Tyr show the background
Property name: SH2 binding enrichment
Form rule: numeric answer, no unit written next to it.

# input Find the recorded SH2 binding enrichment belonging to MLEVPYVDHNS [F10_Y384_R387H] and report it.
# output 0.707

# input Find the recorded SH2 binding enrichment belonging to RCNHPYLINGA [CHD7_Y1256_C1251R] and report it.
# output 0.931

# input Find the recorded SH2 binding enrichment belonging to RSDSTYRMSAT [NHS_Y1532_S1531T] and report it.
# output 0.769

# input Find the recorded SH2 binding enrichment belonging to PSQRRYVYYYS [PTEN_Y174] and report it.
# output 1.55

# input Find the recorded SH2 binding enrichment belonging to FRIGPYQPSVP [MATR3_Y784_N787S_YF] and report it.
# output 0.843

# input Find the recorded SH2 binding enrichment belonging to FSDQVYRQHRK [TH_Y230_R233H] and report it.
# output 1.03

# input Find the recorded SH2 binding enrichment belonging to KMGNIYRTEFG [MRPL3_Y265_YF] and report it.
# output 0.672

# input Find the recorded SH2 binding enrichment belonging to ALWYIYSHTRS [ENG_Y614] and report it.
# output 0.931

# input Find the recorded SH2 binding enrichment belonging to KAESWYQTKYE [KRT75_Y342_E337K] and report it.
# output 0.805

# input Find the recorded SH2 binding enrichment belonging to EEQFFYEKAIL [BCCIP_Y257_E254Q] and report it.
# output 1.04

# input Find the recorded SH2 binding enrichment belonging to PRPAGYPSTVS [CACNA1C_Y1832] and report it.
# output 1

# input Find the recorded SH2 binding enrichment belonging to GGQVFYNSEFG [FLT4_Y1333_YF] and report it.
# output 0.623

# input Find the recorded SH2 binding enrichment belonging to HELYVYKSDEN [DOCK3_Y548_C550S] and report it.
# output 1.04

# input Find the recorded SH2 binding enrichment belonging to SSFDTYHLSRE [KIR3DL2_Y253_I252T_YF] and report it.
# output 0.764

---

Kindly state phosphorylation enrichment for each of the entries shown.
Tested on: c-Abl (mouse);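 further: 11-residue human phosphosite peptides and single-mutation variants displayed on the E. coli surface, counted by deep sequencing, each peptide's frequency after selection divided by its frequency in the unselected input library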;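 further: frequency after pTyr selection over input frequency; kinase dosed for 20-30% of maximal phosphorylation in three min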
Assay: phosphorylation enrichment, bacterial display (enrichment ratio); higher = better substrate or ligand; peptides without Tyr show the background
Form rule: numeric answer, no unit written next to it.

# input Find the recorded phosphorylation enrichment belonging to HFEFKYVINAI [MAOA_Y268_C266F_YF] and report it.
# output 1.26

# input Find the recorded phosphorylation enrichment belonging to DKATEYIQYMR [MAX_Y70] and report it.
# output 0.499

# input Find the recorded phosphorylation enrichment belonging to GGMTEYKLVVV [KRAS_Y4] and report it.
# output 0.539

# input Find the recorded phosphorylation enrichment belonging to YAREGYSALPQ [SARS2_Y52] and report it.
# output 0.541

# input Find the recorded phosphorylation enrichment belonging to FDSPFYRDSLP [TSC1_Y508] and report it.
# output 0.47

# input Find the recorded phosphorylation enrichment belonging to RFLRGYRQDAF [HLA-A_Y137_YF] and report it.
# output 0.708

# input Find the recorded phosphorylation enrichment belonging to RDHYGYRQSVT [CD55_Y245] and report it.
# output 0.794

# input Find the recorded phosphorylation enrichment belonging to IEENGYNTFAS [FGF10_Y161_YF] and report it.
# output 0.846
